Target or system Tyrosine-protein kinase JAK1 (Homo sapiens, UniProt P23458); metric IC50; compiled from varied reports.
ENDPOINT: IC50 (nM)

A. CCN(c1ncc(F)cc1CNc1nc(-c2cc(F)c(O)cc2CC(F)(F)F)cc2[nH]nc(C(N)=O)c12)S(C)(=O)=O
B. CCS(=O)(=O)N1CC(N(C)c2ncnc3[nH]ccc23)C2(CC2)C1 (racemic)
C. CS(=O)(=O)NCc1nc2cnc3[nH]ccc3c2n1N1CCC(CC#N)CC1
Descending by IC50 please, for everything listed above. Please, when replying, give the labels in the order that was requested. A, B, C

----------
Across several publications, the following IC50 results were reported for Tyrosine-protein kinase JAK1 (Homo sapiens).

// worked examples, IC50 included
compound=CSc1nccc(-c2cnc3[nH]ccc3c2N[C@@H]2CCCN(C(=O)CC#N)C2)n1 observed_value="≤ 10 nM"
compound=CCOC(=O)Cn1cc(Nc2ncc3ccn(C[C@H]4CC[C@@H](O)CC4)c3n2)cn1 observed_value="100 to 1000 nM"
compound=CC(C)COc1ccc2cc1COCCCCNC(=O)c1ccc(c(N)c1)-c1ccnc(n1)N2 observed_value="101 to 1000 nM"

Documented IC50 of N#CCC1(n2cc(-c3ncnc4[nH]ccc34)cn2)CN(C2CCN(C(=O)c3ccccc3F)CC2)C1 : ≤ 5 nM

Entry CSC(CNC(=O)c1noc2c1CN(c1ncnc3[nH]ccc13)CC2)C(F)(F)F (centres unmarked) , IC50 reported as 100 to 500 nM

For Nc1cc2ccc1-c1ccnc(n1)Nc1cccc(c1)COCCCCNC2=O the compound record lists IC50 as 101 to 1000 nM

Quick note, IC50 for N#CCC1(n2ccc(-c3ncnc4[nH]ccc34)c2)CN(C2CCN(C(=O)c3cc(F)cc(C#N)c3)CC2)C1 landed at ≤ 5 nM

Recorded IC50 (compound COc1cscc1C(=O)N1CCC(N2CC(CC#N)(n3cc(-c4ncnc5[nH]ccc45)cn3)C2)CC1 ): ≤ 5 nM
